- Subject of test: SHP2-C SH2
- Test name: SH2 binding enrichment of the phosphorylated peptide, bacterial display (enrichment ratio); higher = better substrate or ligand; peptides without Tyr show the background
Label scheme for SH2 binding enrichment: lower than 0.8 is NO, 0.8 and above is YES.

Ordered residues: QSMEPYTKQQL [STAT3_Y640_V637M]
Category label: YES
//
Ordered residues: DEQKKYYNAMK [SCN5A_Y1494_E1489D]
Category label: NO
//
Ordered residues: SAPPSHEETVA [LITAF_Y23_Y23H]
Category label: NO
//
Ordered residues: SVVVPYEPPEL [TP53_Y220_V225L]
Category label: NO
//
Ordered residues: VDSNPYSRLMA [UBA5_Y53]
Category label: YES
//
Ordered residues: PQAVRYIFTID [DCX_Y103_G100A_YF]
Category label: YES
//
Ordered residues: VHKEGYNKLNQ [ZNF676_Y98]
Category label: NO
//
Ordered residues: CLAKMYFSAVE [CP_Y539_D544E_YF]
Category label: YES
//
Ordered residues: ANAYIYDVQLP [L1CAM_Y420_V421D]
Category label: YES
//
Ordered residues: NPPGMYPVTGP [LPP_Y346]
Category label: NO
//
Ordered residues: FTRNYYVQAVL [CYBA_Y88_R90Q]
Category label: YES
//
Ordered residues: KVDKEYEVHVR [GHR_Y226_R229H]
Category label: NO
//
Ordered residues: VKANTYENFWP [GATM_Y100_K102N_YF]
Category label: YES
//
Ordered residues: NCLRQYVAGRF [CRB1_Y711_E710Q]
Category label: NO
//
Ordered residues: ESLRPYDVMDV [KCNQ2_Y562]
Category label: NO
//
Ordered residues: SSPQLYLVPFL [TAF4_Y652_P651L]
Category label: YES
//
Ordered residues: ALRASYTPSPA [ESS2_Y418]
Category label: NO
//
Ordered residues: ECKFLYSRKEG [PTPN11_Y263_L261F]
Category label: NO
//
Ordered residues: TLEKYYFAFPG [SLC1A1_Y51_F50Y]
Category label: YES
//
Ordered residues: QGRQTYLLQPA [DDR2_Y813_P815L]
Category label: YES

====

- Test system: c-Abl (mouse);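 further: 11-residue human phosphosite peptides and single-mutation variants displayed on the E. coli surface, counted by deep sequencing, each peptide's frequency after selection divided by its frequency in the unselected input library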;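 further: frequency after pTyr selection over input frequency; kinase dosed for 20-30% of maximal phosphorylation in three min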
- Test name: phosphorylation enrichment, bacterial display (enrichment ratio); higher = better substrate or ligand; peptides without Tyr show the background
Label scheme for phosphorylation enrichment: lower than 0.7 is FALSE, 0.7 and above is TRUE.

Ordered residues: FTNRSYDLDFD [MYC_Y12_N11S_YF]
Category label: TRUE
//
Ordered residues: AVVEPYNSLLT [TUBA1A_Y185_I188L]
Category label: FALSE
//
Ordered residues: VKANTYENFWP [GATM_Y100_K102N_YF]
Category label: TRUE
//
Ordered residues: LYYYSYLLKNH [PTEN_Y180_V175L]
Category label: TRUE
//
Ordered residues: TEDAEYDVQSK [PTCHD3_Y335_P333A]
Category label: TRUE
//
Ordered residues: KVGPGSLGSGG [RET_Y826_Y826S]
Category label: FALSE
//
Ordered residues: RAILNYIASKY [GSTA3_Y74]
Category label: TRUE
//
Ordered residues: NRSSLYLVAGP [KIAA1614_Y1083]
Category label: FALSE
//
Ordered residues: QKFMAYLSQGW [HLCS_Y236_G241W]
Category label: TRUE
//
Ordered residues: PPAPRCHHSAV [LZTR1_Y119_Y119C]
Category label: TRUE
//
Ordered residues: RASDYYSQQMA [GBP6_Y334_A331S]
Category label: FALSE
//
Ordered residues: GIVEDYRPTFY [ACVRL1_Y421_P424T]
Category label: TRUE
//
Ordered residues: PTTMTYFPHFD [HBA1_Y43_K41M]
Category label: TRUE
//
Ordered residues: SDFSRYARTSI [TERT_Y949_S948R_YF]
Category label: FALSE
//
Ordered residues: SVVVPYESPEV [TP53_Y220_P222S]
Category label: TRUE
//
Ordered residues: GGGGSYNNFGN [HNRNPA1_Y312_D314N]
Category label: FALSE
//
Ordered residues: CTTIHYNYMCH [TP53_Y234_N239H]
Category label: FALSE
//
Ordered residues: VVDVTYDDVPI [FLNB_Y1308_E1305D]
Category label: TRUE
//
Ordered residues: RKQQLYIAMEE [CCDC39_Y593_T594I]
Category label: TRUE
//
Ordered residues: KNCFKYYMSDD [ATRX_Y203]
Category label: TRUE
//
Ordered residues: AGTIPYHAHLD [ASS1_Y291_L290P]
Category label: FALSE
//
Ordered residues: PSDLLYILDIQ [ITGA2B_Y845]
Category label: TRUE
//
Ordered residues: QAPPIYLDVLG [NTRK1_Y791_V790I]
Category label: TRUE
//
Ordered residues: RTLTHYKSAVK [ASNS_Y555]
Category label: FALSE
//
Ordered residues: RVILRYVNPGT [LAMA3_Y791]
Category label: FALSE
//
Ordered residues: RPPFTYATLIH [FOXP3_Y342_R347H]
Category label: TRUE
